Entries and their measured human MASP1 IC50 follow.
assayed.target: T1, recombinant human MASP1 active protease (amino acids 297-699, C-terminal His Tag) (human, UniProt P48740 297-699)
T1 sequence: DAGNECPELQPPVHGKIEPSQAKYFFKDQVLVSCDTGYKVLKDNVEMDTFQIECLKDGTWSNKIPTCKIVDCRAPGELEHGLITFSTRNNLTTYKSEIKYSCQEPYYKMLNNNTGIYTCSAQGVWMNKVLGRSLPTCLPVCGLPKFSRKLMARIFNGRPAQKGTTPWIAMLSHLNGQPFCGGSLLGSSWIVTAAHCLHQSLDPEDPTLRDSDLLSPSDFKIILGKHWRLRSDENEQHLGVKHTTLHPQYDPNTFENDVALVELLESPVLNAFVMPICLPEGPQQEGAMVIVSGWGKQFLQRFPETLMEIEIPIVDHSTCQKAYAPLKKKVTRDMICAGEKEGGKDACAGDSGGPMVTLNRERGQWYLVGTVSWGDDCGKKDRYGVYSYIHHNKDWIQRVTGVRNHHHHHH
test.name: cell-based or functional assay
Bridge positions count the residues as written; N and C are the ends. Square brackets hold non-standard residues; d marks the D form. Ends that are not written are not given here. Oic = O=C(O)[C@@H]1C[C@@H]2CCCC[C@@H]2N1; tBuAla = CC(C)(C)C[C@H](N)C(=O)O; Pen = CC(C)(S)[C@H](N)C(=O)O; Lac = C[C@H](O)C(=O)O
Write down the value, and be sure its unit follows.

binder	experimental.result
ICSRSLP[Oic]I[Pen]IPE-NH2 (disulfide 2-10; N-terminus assumed; SMILES CC[C@H](C)[C@H](N)C(=O)N[C@H]1CSSC(C)(C)[C@@H](C(=O)N[C@H](C(=O)N2CCC[C@H]2C(=O)N[C@@H](CCC(=O)O)C(N)=O)[C@@H](C)CC)NC(=O)[C@H]([C@@H](C)CC)NC(=O)[C@@H]2C[C@@H]3CCCC[C@@H]3N2C(=O)[C@@H]2CCCN2C(=O)[C@H](CC(C)C)NC(=O)[C@H](CO)NC(=O)[C@H](CCCNC(=N)N)NC(=O)[C@H](CO)NC1=O) [Example 372: IC+SRSLP-(Oic)-I-(Pen)+IPE-NH2]	36 nM

According to the records, this binder [Lac]ICSRS[tBuAla]PPICIPD-NH2 (disulfide 3-11; N-terminus assumed; SMILES CC[C@H](C)[C@H](NC(=O)[C@H](C)O)C(=O)N[C@H]1CSSC[C@@H](C(=O)N[C@H](C(=O)N2CCC[C@H]2C(=O)N[C@@H](CC(=O)O)C(N)=O)[C@@H](C)CC)NC(=O)[C@H]([C@@H](C)CC)NC(=O)[C@@H]2CCCN2C(=O)[C@@H]2CCCN2C(=O)[C@H](CC(C)(C)C)NC(=O)[C@H](CO)NC(=O)[C@H](CCCNC(=N)N)NC(=O)[C@H](CO)NC1=O) [Example 387: (Lactic)-IC+SRS-((tBu)A)-PPIC+IPD-NH2] displays human MASP1 IC50 of 44 nM
